Data credit: ChEMBL document CHEMBL2057195

# Protocol notes: Clearance in rat liver microsomes
# Assay type: ADME, Microsome
# Experimental context: read-out: CLH
Assay metric: microsomal CLint (µL/min/mg)
Give bare numbers, in µL/min/mg.

Sample Cc1nc(N)nc2c1cc(-c1cn[nH]c1)c(=O)n2C(C)C — what was its microsomal CLint? 349

---

# Measurement target: Phosphatidylinositol 4,5-bisphosphate 3-kinase catalytic subunit alpha isoform (Mus musculus)
# Sequence (P42337 whole entry, canonical isoform): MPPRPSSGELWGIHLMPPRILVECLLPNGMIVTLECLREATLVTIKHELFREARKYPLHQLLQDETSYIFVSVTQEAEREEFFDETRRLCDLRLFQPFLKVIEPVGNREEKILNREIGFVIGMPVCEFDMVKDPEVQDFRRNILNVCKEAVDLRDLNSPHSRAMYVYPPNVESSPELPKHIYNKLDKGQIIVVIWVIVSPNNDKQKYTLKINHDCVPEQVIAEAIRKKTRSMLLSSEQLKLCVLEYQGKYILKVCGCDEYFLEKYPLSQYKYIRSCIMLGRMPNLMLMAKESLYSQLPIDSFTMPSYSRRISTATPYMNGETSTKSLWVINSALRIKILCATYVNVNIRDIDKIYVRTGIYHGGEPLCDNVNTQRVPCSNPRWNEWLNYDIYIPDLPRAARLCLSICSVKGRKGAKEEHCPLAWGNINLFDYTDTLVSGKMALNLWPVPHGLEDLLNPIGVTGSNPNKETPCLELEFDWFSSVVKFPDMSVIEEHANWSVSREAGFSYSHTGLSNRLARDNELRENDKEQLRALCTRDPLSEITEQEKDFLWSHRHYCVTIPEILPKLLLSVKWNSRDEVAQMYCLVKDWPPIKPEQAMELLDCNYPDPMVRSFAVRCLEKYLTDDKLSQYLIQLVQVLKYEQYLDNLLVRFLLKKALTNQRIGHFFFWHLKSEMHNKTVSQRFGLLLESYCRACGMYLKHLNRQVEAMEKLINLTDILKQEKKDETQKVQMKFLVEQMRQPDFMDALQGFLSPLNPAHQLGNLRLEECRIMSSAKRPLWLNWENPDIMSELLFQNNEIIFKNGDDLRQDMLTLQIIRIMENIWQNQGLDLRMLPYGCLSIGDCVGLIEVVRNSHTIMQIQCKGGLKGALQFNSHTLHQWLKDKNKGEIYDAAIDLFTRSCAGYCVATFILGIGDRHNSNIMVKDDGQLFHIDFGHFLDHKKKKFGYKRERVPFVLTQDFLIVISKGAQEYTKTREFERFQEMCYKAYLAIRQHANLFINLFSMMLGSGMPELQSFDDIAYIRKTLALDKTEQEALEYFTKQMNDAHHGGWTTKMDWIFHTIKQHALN
pKi: −log10 of the molar value.
Classification by pKi follows these ranges: bottom range (below 7), center range (7 to below 8), top range (8 or more)

Observe how each entry below is paired with its result.
Cc1nc(N)nc2c1cc(-c1cn[nH]c1)c(=O)n2C1CC1: center range
COc1ccc(-c2cc3c(C)nc(N)nc3n(C3CC3)c2=O)cn1: center range
Cc1nc(N)nc2c1cc(-c1cn[nH]c1)c(=O)n2NCC(C)C: bottom range

Which pKi band matches COc1ccc(-c2cc3c(C)nc(N)nc3n(C3CCCC3)c2=O)cn1 ? top range

---

# Protocol notes: Clearance in rat at 2 mg/kg, iv
# Format: ADME, organism-based
# Design: dose 2 mg/kg, route intravenous
# Experimental context: in vivo
Assay metric: clearance (L/h/kg)
Answers are plain numbers, in L/h/kg.

Please give the measured clearance for this compound: Cc1nc(N)nc2c1cc(-c1cn[nH]c1)c(=O)n2N1CCCC1 2.18

---

# Protocol notes: Cmax in rat at 5 mg/kg, po
# Format: ADME, organism-based
# Parameters: dose 5 mg/kg, route oral
# Experimental context: in vivo
Assay metric: Cmax (ng/mL)
One number for each entry, in ng/mL.

# Cmax lookup, item Cc1nc(N)nc2c1cc(-c1cn[nH]c1)c(=O)n2N1CCCC1 0.144

---

# Measurement target: Phosphatidylinositol 4,5-bisphosphate 3-kinase catalytic subunit alpha isoform (Mus musculus)
Assay metric: pKi
Answers are plain numbers, as −log10 of the molar value.

Cc1nc(N)nc2c1cc(-c1cn[nH]c1)c(=O)n2C(C)C: 7.87
CCN(CC)n1c(=O)c(-c2cn[nH]c2)cc2c(C)nc(N)nc21: 6.86
Cc1nc(N)nc2c1cc(-c1cn[nH]c1)c(=O)n2C1CCC1: 8.15
COc1ccc(-c2cc3c(C)nc(N)nc3n(N3CCCC3)c2=O)cn1: 8.00

Could you now consider this next compound?
Consider the compound Cc1nc(N)nc2c1cc(-c1cn[nH]c1)c(=O)n2N1CCCC1 and give its measured pKi. 7.90
